# assayInfo: Tmax in BALB/c mouse at 10 mg/kg, po measured up to 24 hrs by HPLC analysis
# Type: ADME, organism-based
# conditions: in vivo
measuredEndpoint: Tmax (min)

{"compound": "COc1cc2c(cc1OCc1ccc3c(c1)OCO3)CC(C(C)C)n1cc(C(=O)O)c(=O)cc1-2 (stereo not given)", "Tmax / min": 49.8}
{"compound": "COCCCOc1cc2c(cc1OC)-c1cc(=O)c(C(=O)O)cn1C(C(C)C)C2 (racemic)", "Tmax / min": 11.4}

P = COc1cc2c(cc1OCC1COc3ccc(F)cc3O1)CC(C(C)C)n1cc(C(=O)O)c(=O)cc1-2 (stereo not given)
Q = COc1cc2c(cc1OCC1COc3cccnc3O1)CC(C(C)C)n1cc(C(=O)O)c(=O)cc1-2 (stereo not given)
R = COc1cc2c(cc1OCC1CCCO1)CC(C(C)C)n1cc(C(=O)O)c(=O)cc1-2 (stereo not given)
Req: Reorder the items by Tmax, least to greatest. Please list the labels in the order you were asked to rank them.
Resp: R, Q, P
